Molecular target: Mycobacterial ClpC1 FL (Mycobacterium tuberculosis, UniProt P9WPC9)
Construct: N-terminal domain (NTD) and the full-length protein (FL) by surface plasmon resonance (SPR)
Sequence (P9WPC9 whole entry, the tested form may be a part): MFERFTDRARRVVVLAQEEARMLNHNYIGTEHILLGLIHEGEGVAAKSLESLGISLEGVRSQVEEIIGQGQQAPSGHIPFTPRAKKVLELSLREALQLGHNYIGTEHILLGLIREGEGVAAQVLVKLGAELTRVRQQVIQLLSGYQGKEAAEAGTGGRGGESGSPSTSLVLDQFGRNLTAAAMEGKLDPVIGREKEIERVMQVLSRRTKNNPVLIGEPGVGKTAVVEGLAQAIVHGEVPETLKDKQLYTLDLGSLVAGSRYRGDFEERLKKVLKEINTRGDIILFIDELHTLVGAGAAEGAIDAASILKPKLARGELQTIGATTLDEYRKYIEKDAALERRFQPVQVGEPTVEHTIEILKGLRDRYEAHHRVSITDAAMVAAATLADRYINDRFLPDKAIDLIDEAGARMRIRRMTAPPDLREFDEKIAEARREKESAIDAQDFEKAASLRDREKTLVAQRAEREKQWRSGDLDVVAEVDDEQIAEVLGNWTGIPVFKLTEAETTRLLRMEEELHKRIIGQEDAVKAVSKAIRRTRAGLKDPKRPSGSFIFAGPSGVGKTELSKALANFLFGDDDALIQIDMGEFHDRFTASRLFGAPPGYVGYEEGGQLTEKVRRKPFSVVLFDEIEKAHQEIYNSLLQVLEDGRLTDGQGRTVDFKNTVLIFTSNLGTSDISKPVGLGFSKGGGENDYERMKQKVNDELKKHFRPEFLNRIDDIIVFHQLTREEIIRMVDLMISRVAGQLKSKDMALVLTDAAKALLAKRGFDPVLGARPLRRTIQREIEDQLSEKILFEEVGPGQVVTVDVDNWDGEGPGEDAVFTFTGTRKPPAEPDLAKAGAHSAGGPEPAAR
Assay: SPR binding affinity to ClpC1 full-length protein (FL)
Conditions: SPR, ClpC1 full-length protein; Table 3, unit inferred; read-out: KD FL
experimental-endpoint: Kd (nM)
Quick reminder: number only, in nM, skip the unit.

Below are worked cases with known answers.
>  <compound>
C/C=C/C[C@@H]1NC(=O)[C@H](CC(C)C)N2C(=O)[C@H](C[C@H](C)[C@H]2O)N(C)C(=O)[C@H](C)NC(=O)[C@H](Cc2ccc(O)c([N+](=O)[O-])c2)NC(=O)[C@H](CC(C)C)N(C)C(=O)[C@H](Cc2cn(C(C)(C)[C@H]3CO3)c3ccccc23)NC1=O [rufomycin 32]

>  <assayed-system>
Mycobacterial ClpC1 FL (Mycobacterium tuberculosis, UniProt P9WPC9)

>  <Kd (nM)>
31

$$$$
>  <compound>
C/C=C/C[C@@H]1NC(=O)[C@H](CC(C)C)N2C(=O)[C@H](C[C@H](C)[C@@H]2O)N(C)C(=O)[C@H](C)NC(=O)[C@H](Cc2ccc(O)c([N+](=O)[O-])c2)NC(=O)[C@H](CC(C)C)N(C)C(=O)[C@H](Cc2cn(C(C)(C)[C@H]3CO3)c3ccccc23)NC1=O [rufomycin 33]

>  <assayed-system>
Mycobacterial ClpC1 FL (Mycobacterium tuberculosis, UniProt P9WPC9)

>  <Kd (nM)>
27

$$$$
>  <compound>
C/C=C/C[C@@H]1NC(=O)[C@H](CC(C)C)N2C(=O)[C@H](C[C@@H](C)[C@H]2O)N(C)C(=O)[C@H](C)NC(=O)[C@H](Cc2ccc(O)c([N+](=O)[O-])c2)NC(=O)[C@H](CC(C)C)N(C)C(=O)[C@H](Cc2cn(C(C)(C)[C@H]3CO3)c3ccccc23)NC1=O [rufomycin 34]

>  <assayed-system>
Mycobacterial ClpC1 FL (Mycobacterium tuberculosis, UniProt P9WPC9)

>  <Kd (nM)>
178

$$$$

Answer briefly: Kd recorded on Mycobacterial ClpC1 FL (Mycobacterium tuberculosis, UniProt P9WPC9) for C/C=C/C[C@@H]1NC(=O)[C@H](CC(C)C)N2C(=O)[C@H](C[C@@H](C)[C@@H]2O)N(C)C(=O)[C@H](C)NC(=O)[C@H](Cc2ccc(O)c([N+](=O)[O-])c2)NC(=O)[C@H](CC(C)C)N(C)C(=O)[C@H](Cc2cn(C(C)(C)[C@H]3CO3)c3ccccc23)NC1=O [rufomycin 35]
209

====

Molecular target: Mycobacterial ClpC1-NTD (Mycobacterium tuberculosis, UniProt P9WPC9)
Construct: caseinolytic protein C1 (ClpC1) N-terminal domain (NTD)
Test: SPR binding affinity to ClpC1-NTD
Conditions: ClpC1 N-terminal domain; KD=kd/ka; Table 1; read-out: SPR KD NTD
experimental-endpoint: Kd (nM)
Quick reminder: number only, in nM, skip the unit.

Below are worked cases with known answers.
>  <compound>
C/C=C/C[C@@H]1NC(=O)[C@H](CC(C)C)N2C(=O)[C@H](CC(C)[C@H]2OC)N(C)C(=O)[C@H](C)NC(=O)[C@H](Cc2ccc(O)c([N+](=O)[O-])c2)NC(=O)[C@H](CC(C)C)N(C)C(=O)[C@H](Cc2cn(C(C)(C)[C@H](O)COC)c3ccccc23)NC1=O (stereo partly drawn)

>  <assayed-system>
Mycobacterial ClpC1-NTD (Mycobacterium tuberculosis, UniProt P9WPC9)

>  <endpoint-result>
88.5

$$$$
>  <compound>
C/C=C/C[C@@H]1NC(=O)[C@H](CC(C)C)N2C(=O)[C@H](CC(C)[C@H]2O)N(C)C(=O)[C@H](C)NC(=O)[C@H](Cc2ccc(O)c([N+](=O)[O-])c2)NC(=O)[C@H](CC(C)C)N(C)C(=O)[C@H](Cc2cn(C(C)(C)[C@H](O)CCl)c3ccccc23)NC1=O (stereo partly drawn)

>  <assayed-system>
Mycobacterial ClpC1-NTD (Mycobacterium tuberculosis, UniProt P9WPC9)

>  <endpoint-result>
114

$$$$

Proceed to the following item.
Consider the compound C/C=C/C[C@@H]1NC(=O)[C@H](CC(C)C)N2C(=O)[C@H](CC(C)[C@H]2OC)N(C)C(=O)[C@H](C)NC(=O)[C@H](Cc2ccc(O)c([N+](=O)[O-])c2)NC(=O)[C@H](CC(C)C)N(C)C(=O)[C@H](Cc2cn(C(C)(C)[C@H]3CO3)c3ccccc23)NC1=O (stereo partly drawn) and give its recorded Kd.
103
